- Assay Details: Pharmacokinetics of crystalline form III, fasting and non-fasting
- Assay type: in vivo, Beagle dog
- Condition Description: male, beagle, dog, plasma, po, 100 mg/kg, 100 mg/kg po, Non-fast, plasma, male; read-out: AUC0-24 h
Quantity: AUC(0-t) (µg·h/mL)
Reply with just the number (in µg·h/mL).

So, COC(=O)N1CCO[C@@H](Cc2c(-c3c(F)cc(S(N)(=O)=O)cc3F)nc3cc(Cl)ccn23)C1 [Crystalline form III] ? Its AUC(0-t) was 305

---

- Assay Details: Solubility in biological media SGF, FaSSIF and FeSSIF
- Format: physicochemical
- Condition Description: SGF, 37 °C, simulated gastric fluid, thermodynamic from solid, SGF, 0.5 h, 37° C.; read-out: Solubility (visual observation)
Quantity: solubility at 0.5 h

So, COC(=O)N1CCO[C@@H](Cc2c(-c3c(F)cc(S(N)(=O)=O)cc3F)nc3cc(Cl)ccn23)C1 [Crystalline form III] ? Its solubility at 0.5 h was > 5000 µg/mL

---

- Assay Details: Solubility in DMSO and DMSO/water mixed solvents
- Format: physicochemical
- Condition Description: aqueous with cosolvent or surfactant or cyclodextrin; DMSO/Water 1:4, RT
Quantity: Solubility

So, COC(=O)N1CCO[C@@H](Cc2c(-c3c(F)cc(S(N)(=O)=O)cc3F)nc3cc(Cl)ccn23)C1 [Crystalline form III] ? Its Solubility was < 250 µg/mL

---

- Assay Details: Pharmacokinetics of crystalline form III, fasting and non-fasting
- Format: in vivo, Beagle dog
- Condition Description: female, beagle, dog, plasma, po, 100 mg/kg, 100 mg/kg po, fast
- Experimental: Beagle dog (general grade, Beijing Masi Biotechnology Co., Ltd.) was given compound A by single oral gavage to study the pharmacokinetics of the compound in plasma. […] The concentration of compound A in plasma was determined by LC-MS/MS method (Non-GLP). The pharmacokinetic parameters were calculated by WinNonlin (Phoenix™, version 8.1) or other similar software. […]
Quantity: half-life
Respond with a number, then the unit of measure.

So, COC(=O)N1CCO[C@@H](Cc2c(-c3c(F)cc(S(N)(=O)=O)cc3F)nc3cc(Cl)ccn23)C1 [Crystalline form III] ? Its half-life was 12 h

---

- Assay Details: Pharmacokinetics of crystalline form III, fasting and non-fasting
- Assay type: in vivo, Beagle dog
- Condition Description: female, beagle, dog, whole blood, po, 100 mg/kg, 100 mg/kg po, Non-fast, blood
Quantity: Tmax (h)
Reply with just the number (in h).

So, COC(=O)N1CCO[C@@H](Cc2c(-c3c(F)cc(S(N)(=O)=O)cc3F)nc3cc(Cl)ccn23)C1 [Crystalline form III] ? Its Tmax was 6

---

- Assay Details: Pharmacokinetics of crystalline form III, fasting and non-fasting
- Assay type: in vivo, Beagle dog
- Condition Description: male, beagle, dog, whole blood, po, 100 mg/kg, 100 mg/kg po, Non-fast, blood
Quantity: MRT last (h)
Reply with just the number (in h).

So, COC(=O)N1CCO[C@@H](Cc2c(-c3c(F)cc(S(N)(=O)=O)cc3F)nc3cc(Cl)ccn23)C1 [Crystalline form III] ? Its MRT last was 18.9

---

- Assay Details: Pharmacokinetics, crystalline form I versus crystalline form V
- Type: in vivo, Beagle dog
- Condition Description: male, beagle, dog, plasma, po, 10 mg/kg, 10 mg/kg po, fasting, male dogs, 0.5% CMC-Na suspension
Quantity: MRT last (h)
Reply with just the number (in h).

So, COC(=O)N1CCO[C@@H](Cc2c(-c3c(F)cc(S(N)(=O)=O)cc3F)nc3cc(Cl)ccn23)C1 [Crystalline form I] ? Its MRT last was 8.11

---

- Assay Details: Pharmacokinetics of crystalline form III, fasting and non-fasting
- Format: in vivo, Beagle dog
- Condition Description: male, beagle, dog, plasma, po, 100 mg/kg, 100 mg/kg po, Non-fast
- Experimental: Beagle dog (general grade, Beijing Masi Biotechnology Co., Ltd.) was given compound A by single oral gavage to study the pharmacokinetics of the compound in plasma. […] The concentration of compound A in plasma was determined by LC-MS/MS method (Non-GLP). The pharmacokinetic parameters were calculated by WinNonlin (Phoenix™, version 8.1) or other similar software. […]
Quantity: half-life (h)
Reply with just the number (in h).

So, COC(=O)N1CCO[C@@H](Cc2c(-c3c(F)cc(S(N)(=O)=O)cc3F)nc3cc(Cl)ccn23)C1 [Crystalline form III] ? Its half-life was 5.33

---

- Assay Details: Pharmacokinetics of crystalline form III, fasting and non-fasting
- Type: in vivo, Beagle dog
- Condition Description: female, beagle, dog, plasma, po, 100 mg/kg, 100 mg/kg po, Non-fast
Quantity: Tmax (h)
Reply with just the number (in h).

So, COC(=O)N1CCO[C@@H](Cc2c(-c3c(F)cc(S(N)(=O)=O)cc3F)nc3cc(Cl)ccn23)C1 [Crystalline form III] ? Its Tmax was 7.33

---

- Assay Details: Pharmacokinetics of crystalline form III, fasting and non-fasting
- Type: in vivo, Beagle dog
- Condition Description: female, beagle, dog, whole blood, po, 100 mg/kg, 100 mg/kg po, fast, blood
- Method: Beagle dog (general grade, Beijing Masi Biotechnology Co., Ltd.) was given compound A by single oral gavage to study the pharmacokinetics of the compound in plasma. […] The concentration of compound A in plasma was determined by LC-MS/MS method (Non-GLP). The pharmacokinetic parameters were calculated by WinNonlin (Phoenix™, version 8.1) or other similar software. […]
Quantity: Cmax
Respond with a number, then the unit of measure.

So, COC(=O)N1CCO[C@@H](Cc2c(-c3c(F)cc(S(N)(=O)=O)cc3F)nc3cc(Cl)ccn23)C1 [Crystalline form III] ? Its Cmax was 10.3 µg/mL

---

- Assay Details: Pharmacokinetics of crystalline form III, fasting and non-fasting
- Format: in vivo, Beagle dog
- Condition Description: female, beagle, dog, whole blood, po, 100 mg/kg, 100 mg/kg po, Non-fast, blood
Quantity: MRT last (h)
Reply with just the number (in h).

So, COC(=O)N1CCO[C@@H](Cc2c(-c3c(F)cc(S(N)(=O)=O)cc3F)nc3cc(Cl)ccn23)C1 [Crystalline form III] ? Its MRT last was 18.7

---

- Assay Details: Pharmacokinetics of crystalline form III, fasting and non-fasting
- Format: in vivo, Beagle dog
- Condition Description: female, beagle, dog, whole blood, po, 100 mg/kg, 100 mg/kg po, Non-fast, blood
- Procedure: Beagle dog (general grade, Beijing Masi Biotechnology Co., Ltd.) was given compound A by single oral gavage to study the pharmacokinetics of the compound in plasma. […] The concentration of compound A in plasma was determined by LC-MS/MS method (Non-GLP). The pharmacokinetic parameters were calculated by WinNonlin (Phoenix™, version 8.1) or other similar software. […]
Quantity: half-life (min)
Reply with just the number (in min).

So, COC(=O)N1CCO[C@@H](Cc2c(-c3c(F)cc(S(N)(=O)=O)cc3F)nc3cc(Cl)ccn23)C1 [Crystalline form III] ? Its half-life was 1510

---

- Assay Details: Pharmacokinetics of crystalline form III, fasting and non-fasting
- Type: in vivo, Beagle dog
- Condition Description: female, beagle, dog, whole blood, po, 100 mg/kg, 100 mg/kg po, fast, blood
Quantity: MRT last (h)
Reply with just the number (in h).

So, COC(=O)N1CCO[C@@H](Cc2c(-c3c(F)cc(S(N)(=O)=O)cc3F)nc3cc(Cl)ccn23)C1 [Crystalline form III] ? Its MRT last was 14.1

---

- Assay Details: Solubility in biological media SGF, FaSSIF and FeSSIF
- Type: physicochemical
- Condition Description: SGF, 37 °C, simulated gastric fluid, thermodynamic from solid, SGF, 2 h, 37° C.; read-out: Solubility (visual observation)
Quantity: solubility at 2 h

So, COC(=O)N1CCO[C@@H](Cc2c(-c3c(F)cc(S(N)(=O)=O)cc3F)nc3cc(Cl)ccn23)C1 [Crystalline form V] ? Its solubility at 2 h was > 5000 µg/mL

---

- Assay Details: Pharmacokinetics of crystalline form III, fasting and non-fasting
- Type: in vivo, Beagle dog
- Condition Description: male, beagle, dog, plasma, po, 100 mg/kg, 100 mg/kg po, Non-fast
- Description: Beagle dog (general grade, Beijing Masi Biotechnology Co., Ltd.) was given compound A by single oral gavage to study the pharmacokinetics of the compound in plasma. […] The concentration of compound A in plasma was determined by LC-MS/MS method (Non-GLP). The pharmacokinetic parameters were calculated by WinNonlin (Phoenix™, version 8.1) or other similar software. […]
Quantity: Cmax (ng/mL)
Reply with just the number (in ng/mL).

So, COC(=O)N1CCO[C@@H](Cc2c(-c3c(F)cc(S(N)(=O)=O)cc3F)nc3cc(Cl)ccn23)C1 [Crystalline form III] ? Its Cmax was 18900
